target: SF-1 LBD (Mus musculus, UniProt P33242); construct: The mouse SF1 LBD (residues 221-462) was expressed as a 6×His fusion protein; made in house; host or cells: E. coli BL21 (DE3), pET24a; test: AlphaScreen binding of LxxLL / co-repressor motif peptides to purified SF-1 LBD; conditions: FIG. 1A
Sequence (P33242 221-462): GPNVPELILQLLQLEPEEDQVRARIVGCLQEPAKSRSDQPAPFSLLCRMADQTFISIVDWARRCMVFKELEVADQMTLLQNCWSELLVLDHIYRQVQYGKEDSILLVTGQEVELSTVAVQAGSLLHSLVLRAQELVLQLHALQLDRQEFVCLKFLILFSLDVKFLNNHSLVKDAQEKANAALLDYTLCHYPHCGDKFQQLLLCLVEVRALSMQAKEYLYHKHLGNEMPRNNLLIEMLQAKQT
measurement-kind: interaction of peptide motif with purified SF-1

[[record]]
substance = "second SHP LxxLL motif: N-terminally biotinylated peptide VABAPVPSILKKILLEEPNS (SEQ ID NO:6)"
result = "not"


====

target: SF-1 LBD / TIF2 co-activator motif interaction (Mus musculus, UniProt P33242); construct: The mouse SF1 LBD (residues 221-462) was expressed as a 6×His fusion protein; assay: AlphaScreen assay of SF-1 binding to TIF2 co-activator LxxLL motif in absence or presence of phospholipids; settings: absence of ethanol, high basal interaction, FIG. 5D; read-out: IC50 for inhibiting the SF-1/TIF2 interactions
Sequence (P33242 221-462): as the sequence (P33242 221-462) above
pIC50: −log10 of the molar value.
measurement-kind: pIC50

"CCCCC/C=C\C/C=C\CCCCCCCC(=O)OC[C@H](COP(=O)([O-])OCC[N+](C)(C)C)OC(=O)CCCCCCC/C=C\C/C=C\CCCCC" yielded pIC50 of 6.52 to 7.00

====

Target: SF-1 LBD (Mus musculus, UniProt P33242)
Construct: The mouse SF1 LBD (residues 221-462) was expressed as a 6×His fusion protein; made in house; host or cells: E. coli BL21 (DE3), pET24a
Experiment: AlphaScreen binding of LxxLL / co-repressor motif peptides to purified SF-1 LBD
Conditions: FIG. 1A
Text: A. Binding of various LxxLL motifs to the purified SF-1 LBD as measured by AlphaScreen™ assays. The background reading of either SF-1 or the peptides alone is less than 200. The peptide sequences are listed in experimental procedures. The results are the average of three experiments (error bars=standard deviation). All phospholipids were purchased from Sigma and stored according to the manufacturer's instructions. […]
Ends that are not written are not given here. * marks the point of attachment. Biotin = O=C1N[C@H]2[C@H](CS[C@H]2CCCCC(=O)*)N1
measurement-kind: interaction of peptide motif with purified SF-1

[[record]]
substance = "SRC-1 fourth LxxLL motif: N-terminally biotinylated peptide QKPTSGPQTPQAQQKSLLQQLLTE (SEQ ID NO:4) (Biotin-QKPTSGPQTPQAQQKSLLQQLLTE; listed as Mus musculus)"
target_desc = "SF-1 LBD (Mus musculus, UniProt P33242)"
result = "able to interact"

[[record]]
substance = "TRAP220: N-terminally biotinylated peptide GHGEDFSKVSQNPILTSLLQITGN (SEQ ID NO:7) (Biotin-GHGEDFSKVSQNPILTSLLQITGN; listed as Mus musculus)"
target_desc = "SF-1 LBD (Mus musculus, UniProt P33242)"
result = "not"

[[record]]
substance = "first LxxLL motif of SHP: N-terminally biotinylated peptide PCQGSASHPTILYTLLSPGP (SEQ ID NO:5) (Biotin-PCQGSASHPTILYTLLSPGP; listed as Mus musculus)"
target_desc = "SF-1 LBD (Mus musculus, UniProt P33242)"
result = "able to interact"

[[record]]
substance = "CBP: N-terminally biotinylated peptide SGNLVPDAASKHKQLSELLRGGSG (SEQ ID NO:8) (Biotin-SGNLVPDAASKHKQLSELLRGGSG; listed as Mus musculus)"
target_desc = "SF-1 LBD (Mus musculus, UniProt P33242)"
result = "not"

